Target or system Proto-oncogene tyrosine-protein kinase Src (Homo sapiens, UniProt P12931); metric pIC50; compiled from varied reports.
pIC50: −log10 of the molar value.

Quick one: pIC50 for COc1cnc2[nH]cc(C(=O)c3c(F)ccc(NS(=O)(=O)c4ncn[nH]4)c3F)c2c1 ?
≥ 5.00

Also check CC(C)(C)c1cc(NC(=O)Nc2ccc(Oc3ccnc(Sc4ccccc4)n3)c3ccccc23)n(-c2ccc(P(C)(C)=O)cc2)n1
< 6.00

Also check CCCS(=O)(=O)Nc1ccc(F)c(C(=O)c2c[nH]c3ncc(O)cc23)c1F
≥ 5.00

Also check NC(=O)c1nc2nc(Nc3cccc(S(=O)(=O)CCO)c3)ncc2cc1-c1ccccc1Br
7.65

Also check COc1cc(Nc2ncnc(Nc3cccc(Cl)c3)n2)cc(OC)c1OC
> 5.99

Also check Cc1ccc(NC(=O)c2cccc(C(F)(F)F)c2)cc1N1CCc2nc(Nc3cncnc3)ncc2C1
8.70

Also check COc1cc(Nc2cc(Oc3ccc(NC(=O)Nc4cc(C(C)(C)C)cc(CC(N)=O)c4OC)c4ccccc34)ccn2)cc(S(C)(=O)=O)c1
7.08

Also check Nc1c(C(=O)O)c(-c2ccncc2)nn1-c1c(Cl)cc(Cl)cc1Cl
4.26

Also check COc1cc(Nc2ncnc(Nc3cccc(Br)c3)n2)cc(OC)c1OC
5.26 to 6.03

Also check COc1cc(Nc2ncnc(-n3c(NCc4ccccc4Cl)nc4ccccc43)n2)cc(OC)c1OC
< 5.06

Also check CCn1cc(-c2ccnc(Nc3cccc(S(N)(=O)=O)c3)n2)c2cccnc21
5.98

Also check COc1cc(C(=O)N[C@@H]2CCCC[C@@H]2N)cc(-c2ccnc3cc(-c4cc(OC)c(OC)c(OC)c4)oc23)c1
> 6.52

Also check CCNCCOc1ccc(Nc2ncc3cc(-c4ccccc4Br)c(C#N)nc3n2)cc1
8.96

Also check CC(C)c1ncc(CNc2ccc(Cc3c[nH]c4ncncc34)c(F)n2)cn1
≥ 5.00

Also check CCCS(=O)(=O)Nc1ccc(F)c(C(=O)c2c[nH]c3ncc(-c4c(C)nn(C)c4C)cc23)c1F
≥ 5.00

Also check C=CCN(c1ccc(Cl)cc1)c1ncnc(Nc2cc(OC)c(OC)c(OC)c2)n1
5.25 to 6.03
